Below: a set of entries, each annotated with reported drug sensitivity score.
Test system: DLD1 NRF2-GOF
Test: drug sensitivity score (DSS) cytotoxicity (DSS score); higher = more toxic; extreme values may be limits of the assay
Settings: 72 h; CellTox Green cytotoxicity
The reply should be a number, written without any unit.

Solved entries:
{"columns": ["compound", "measuredMetric", "experimentalValue"],
 "data": [
  ["COc1cc2ncnc(Oc3cccc(NC(=O)Nc4cc(C(C)(C)C(F)(F)F)on4)c3)c2cc1OC", "drug sensitivity score", 0],
  ["CNC(=O)c1ccccc1Nc1nc(Nc2ccc3c(c2OC)CCC[C@H](N2CCN(CCO)CC2)C3)ncc1Cl", "drug sensitivity score", 1.8],
  ["Cc1ccc(C(=O)Nc2ccc(Oc3cc4cnn(C)c4cc3-c3cn[nH]c3)c(F)c2)c(=O)n1-c1ccc(F)cc1 [Merestinib]", "drug sensitivity score", 0],
  ["COc1cc(Br)c(Nc2nc(-c3c(C)nc4ncccn34)cs2)c(Br)c1 [PTC-209]", "drug sensitivity score", 0],
  ["CCn1c(-c2nonc2N)nc2cnc(Oc3cccc(NC(=O)c4ccc(OCCN5CCOCC5)cc4)c3)cc21", "drug sensitivity score", 6.1],
  ["Cc1nc(Nc2n[nH]c3c2CN(C(=O)N[C@H](CN(C)C)c2ccccc2)C3(C)C)c2sccc2n1", "drug sensitivity score", 1.8]
]}

Asked: Output measured drug sensitivity score for this item: "CC(C)Oc1ccc(C(=O)N[C@H](CNC(=O)CN(C)C)Cc2ccc(-c3cn4cccc([C@H](C)O)c4n3)cc2)cc1Cl"
Given back: 0

Asked: Output measured drug sensitivity score for this item: CC(=O)Nc1ccc(C(=O)Nc2ccccc2N)cc1 [Tacedinaline]
Given back: 0

Asked: Output measured drug sensitivity score for this item: Cc1cc(Nc2cc(N3CCN(C)CC3)nc(/C=C/c3ccccc3)n2)n[nH]1 [ENMD-2076]
Given back: 4.4

Asked: Output measured drug sensitivity score for this item: C=CCn1c(=O)c2cnc(Nc3ccc(N4CCN(C)CC4)cc3)nc2n1-c1cccc(C(C)(C)O)n1 [AZD1775]
Given back: 6.1

Asked: Output measured drug sensitivity score for this item: Cc1sc2c(c1C)C(c1ccc(Cl)cc1)=N[C@@H](CC(=O)NCCCCNC(=O)COc1cccc3c1C(=O)N(C1CCC(=O)NC1=O)C3=O)c1nnc(C)n1-2 (stereo partly specified) [dBET1]
Given back: 0

----------
Below: a set of entries, each annotated with reported drug sensitivity score.
Test system: DLD1 NRF2-WT
Test: drug sensitivity score (DSS) cytotoxicity (DSS score); higher = more toxic; extreme values may be limits of the assay
Conditions: 72 h; CellTox Green cytotoxicity
The reply should be a number, written without any unit.

Solved entries:
{"columns": ["molecule", "drug sensitivity score"],
 "data": [
  ["COc1cc2ncnc(Oc3cccc(NC(=O)Nc4cc(C(C)(C)C(F)(F)F)on4)c3)c2cc1OC", 0],
  ["Nc1cccc2c1CN(C1CCC(=O)NC1=O)C2=O (stereo not given) [Lenalidomide]", 0],
  ["CN1CC[C@H](c2c(O)cc(O)c3c(=O)cc(-c4ccccc4Cl)oc23)[C@H](O)C1", 0.8]
]}

Asked: Output measured drug sensitivity score for this item: "CN1CCc2c(c3ccccc3n2Cc2ccc(C(=O)NO)cc2)C1"
Given back: 0

Asked: Output measured drug sensitivity score for this item: "CC(C)(O)CC(=O)NCCn1ccc2ncnc(Nc3ccc(Oc4cccc(C(F)(F)F)c4)c(Cl)c3)c21"
Given back: 0
